Every entry's value here was drawn from patent US20250320278A1.

target: SARS-CoV-2 N protein RNA-binding domain (SARS-CoV-2, UniProt P0DTC9 44-180); assay: Octet (BLI) kinetics
parameter: Kd
Report field: quantity (unit follows the number).

Guide cases for Kd, answers given:
>>> endpoint_value("NP3-F4 (antibody, V domains shown) VH: EVQLVESGPELKKPGETVKIPCKTSGYTFTNYGMNWVKQAPGKGLKWMGWINTNTGEPTYAEDFKGRFAFSLETSASTAYLQISNLKNEDTATFFCARGSIYDGYYEGLYYWGQGTTLTVSS VL: DIKMTQSPSSLSVSVGETVTITCRASENIYSNLAWYQQKQGKSPQLLVSAATNLADNVPSRFSGSGSGTQYSLKINSLQSEDFGSYYCQHFWGFPRTFGGGTKLEIK")
"5.57 nM"
>>> endpoint_value("NP3-B2 (antibody, V domains shown) VH: QIQLVQSGGGLVKPGGSLKLSCAASGFTFSDYYMSWVRQTPEKRLEWVATISDGGSYTYYPDSVKGRFTISRDNAKNNLYLHMSSLKSEDTAMYYCARGSTYGNPLDYWGQGTTLTVSS VL: DIQMTQTTSSLSASLGDRVTINCSASQGISNYLNWYQQKPDGTVKLLIYFTSSLHSGFPSRFSGSGSGTDFSLTISNLEPEDIATYYCQQYSKLPFTFGSGTKLEIK")
"0.9 nM"
>>> endpoint_value("NP3-B9 (antibody, V domains shown) VH: EVQLQQSGPELKKPGETVKISCKTSGYTFTNCGMHWVKQAPGKGLKWMGWINTYTGEPTYADDFKGRFAFSLETSVNTAYLQINNLKSEDTASYFCARRDDVYYVAGFDYWGQGTTLTVSS VL: DIQMTQSPASLSVSVGETVTITCRASENIYSNLAWYQQKQGKSPQLLVNGATDLADGVPSRFSGSGSGTQYSLKINSLQSEDFGSYYCQLFWGTPWTFGGGTKLEIK")
"0.47 nM"

Prompt: // returns reported Kd for input NP3-H12 (antibody, V domains shown) VH: QIQLVQSGPELKKPGETVKISCKASGYMFTNYGMNWVKQAPGKGLKWMGWINTYTGEPTYADDFKGRFAFSLDISGSTAYLQINNLKNEDMATYFCARTREIWGNVDFPYWGQGTLVTVSA VL: DILMTQAAPSLSVSVGETVTITCRASENIYSDLAWYQHKEGKSPQLLVYAATDLADGVPSRFSGSGSGTQYSLKINSLQSEDFGNYYCQHFWGTPWTFGGGTKLEIK
Completion: 1.89 nM
